B1: unnamed (parent)
chain 1: MAVSESQLKKMVSKYKYRDLTVRETVNVITLYKDLKPVLDSYVFNDGSSRELMNLTGTIPVPYRGNTYNIPICLWLLDTYPYNPPICFVKPTSSMTIKTGKHVDANGKIYLPYLHEWKHPQSDLLGLIQVMIVVFGDEPPVFSRPISASYPPYQATGPPNTSYMPGMPGGISPYPSGYPPNPSGYPGCPYPPGGPYPATTSSQYPSQPPVTTVGPSRDGTISEDTIRASLISAVSDKLRWRMKEEMDRAQAELNALKRTEEDLKKGHQKLEEMVTRLDQEVAEVDKNIELLKKKDEELSSALEKMENQSENNDIDEVIIPTAPLYKQILNLYAEENAIEDTIFYLGEALRRGVIDLDVFLKHVRLLSRKQFQLRALMQKARKTAGLSDLY
chain 2: LQSRPEPTAPPEESFRSGVETTTPPQKQEPIDKELYPLTSLRSLFGNDPSSQ

- Variants of: B1
- Assay Procedure: yeast 2-hybrid assay
- Run Conditions: with partner chain of the complex shown; parent: 1; read off a plot
Result Type: ratio to parent

{"Variant Designation": "chain 1 K16A", "Result Type": "ratio to parent", "Readout Value": 2.4}
{"Variant Designation": "chain 1 Q7A L8A", "Result Type": "ratio to parent", "Readout Value": 1.1}
{"Variant Designation": "chain 1 Y42A", "Result Type": "ratio to parent", "Readout Value": 0.95}
{"Variant Designation": "chain 1 K9A K10A", "Result Type": "ratio to parent", "Readout Value": 9.3}
{"Variant Designation": "chain 1 Y110A", "Result Type": "ratio to parent", "Readout Value": 0.35}
{"Variant Designation": "chain 1 M11A V12A S13A K14A", "Result Type": "ratio to parent", "Readout Value": 1.9}
{"Variant Designation": "chain 1 Y82A", "Result Type": "ratio to parent", "Readout Value": 0.8}
{"Variant Designation": "chain 1 K10A", "Result Type": "ratio to parent", "Readout Value": 2.9}
{"Variant Designation": "chain 1 S41A", "Result Type": "ratio to parent", "Readout Value": 1.3}
